- Target Under Test: T1, PSMA Fab (006 PSMA Fab)
- T1 construct: also called Anti-PSMA Fab; anti-PSMA Fab
- Test Protocol: phage ELISA; PSMA Fab on plate pre-incubated with PSMA antigen as competitor, anti-M13 HRP detection;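 also: crude clonal phage supernatants added to Fab-coated wells still holding PSMA antigen in blocking buffer, with bound phage as read-out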
1.0 if Phage binding ELISA signal, Anti-PSMA Fab in presence of PSMA antigen is below 0.08. 0.0 if not; exact matches included in 0.0.

Solved entries (count: 3):
GNDYCVPAWMCAGF (tested as crude clonal phage supernatant) [Phage-3900]    0.0
ESQYCVPRWMCDGF (tested as crude clonal phage supernatant) [Phage-3898]    1.0
VIPLCRPSWMCAAY (tested as crude clonal phage supernatant) [Phage-3910]    0.0

Please determine if YVMMCVPQWMCTAK (tested as crude clonal phage supernatant) [Phage-3901] is below 0.08 in terms of Phage binding ELISA signal, Anti-PSMA Fab in presence of PSMA antigen.
1.0

Please determine if SLERCEPPWMCFGF (tested as crude clonal phage supernatant) [Phage-3907] is below 0.08 in terms of Phage binding ELISA signal, Anti-PSMA Fab in presence of PSMA antigen.
1.0

Please determine if FERVCVPAWMCAGF (tested as crude clonal phage supernatant) [Phage-3899] is below 0.08 in terms of Phage binding ELISA signal, Anti-PSMA Fab in presence of PSMA antigen.
1.0

Please determine if ADVLCRPHWMCAGF (tested as crude clonal phage supernatant) [Phage-3905] is below 0.08 in terms of Phage binding ELISA signal, Anti-PSMA Fab in presence of PSMA antigen.
1.0

Please determine if VMAVCQPEWMCSGM (tested as crude clonal phage supernatant) [Phage-3909] is below 0.08 in terms of Phage binding ELISA signal, Anti-PSMA Fab in presence of PSMA antigen.
1.0
